Reported viability at 28.5 h, 10 µM values follow for various molecules
assay: in vitro; conditions: human, hela cells, % viability
readout.type: viability at 28.5 h, 10 µM (%)

molecule=O=[N+]([O-])c1cc(S(=O)(=O)Nc2ccc(C(O)(C(F)(F)F)C(F)(F)F)cc2)ccc1Cl test_result=92.9
molecule=O=C(CCN1CCN(Cc2ccccc2)CC1)Nc1ccc(F)cc1 test_result=77
molecule=COc1ccc(-c2c[nH]c([C@@H]3COCCN3Cc3ccccc3O)n2)cc1 test_result=85.1
molecule="COc1ccc2[nH]cc(C(C(=O)O)N3CCCCC3)c2c1 (stereo not drawn)" test_result=85.3
molecule="CC(NS(=O)(=O)N(C)C)c1ccccc1 (stereo not drawn)" test_result=96.6
molecule="CC(C)C(CCC(=O)Nc1ccc([N+](=O)[O-])cc1O)C(=O)O (stereo not drawn)" test_result=102
molecule=CCn1c(SCC(=O)Nc2ccc(C(C)=O)cc2)nnc1-c1cc(Br)ccc1O test_result=89.2
molecule=c1csc(CSc2nnc3sc4ccccc4n23)c1 test_result=87.9
molecule=C=C(C)CN1CCN(Cc2c[nH]nc2C(C)(C)C)CC1 test_result=92.6
molecule=O=C(C1CCCC1)N1CCC(c2nnc3n2CCCCC3)CC1 test_result=103
molecule=O=C(Cn1cccc2cc(C3CCNCC3)nc1-2)N1CCCCCC1 test_result=95.6
molecule="CCCCc1ccc(S(=O)(=O)n2ccc3c(N4CCNCC4)nccc32)cc1 [CBK045805C]" test_result=100
molecule="CC(CCc1ccccc1)NC1CCCc2c1[nH]c1ccc([N+](=O)[O-])cc21 (stereo not drawn)" test_result=73.2
molecule=Cc1cccc(C)c1OCC(=O)Nc1cccc(Oc2ccc3c(c2)C(=O)N(c2ccccc2)C3=O)c1 test_result=100
molecule="Cc1cc(NC2CC3CCCC(C2)N3C)nc(N)n1 (stereo not drawn)" test_result=88.4
molecule=CN(CC(=O)Nc1ccn(Cc2cccnc2)n1)c1ccc(C#N)cn1 test_result=87.3
molecule="CC(NC(=O)CN(c1ccc(Cl)c(Cl)c1)S(=O)(=O)c1ccccc1)c1ccccc1 (stereo not drawn)" test_result=92.8
molecule=CCCOc1ccc(Br)cc1/C=N/O test_result=110
molecule="CC(C)(C)OC(=O)N1CCCC(C(=O)NC(C(N)=O)c2ccccc2)C1 (stereo not drawn)" test_result=99.8
molecule=NC(=O)c1c(NC(=O)c2ccc(-c3ccccc3)cc2)sc2c1CCC2 test_result=91.3
molecule="CN(C)C(c1ccc2c(c1)OCO2)c1nnnn1C1CCCCC1 (stereo not drawn)" test_result=103
molecule=CNC(=O)CSc1nc2ccccc2nc1C(F)(F)F test_result=95.9
molecule=Cc1cc2occ(CC(=O)NCc3ccccn3)c2c(C)c1Cl test_result=97.5
molecule=O=C(NCCN1CCC(O)(c2ccc(F)cc2)CC1)C1CC1 test_result=97.1
molecule="CCCN1CC(NS(=O)(=O)c2cc(-n3cccn3)ccc2C)CC1=O (stereo not drawn)" test_result=98.3
molecule=COc1ccc(-c2ccc(C#N)c(SCc3ccncc3)n2)cc1 test_result=102
molecule=O=C(CSc1nnc(COc2ccccc2)n1-c1ccccc1)c1cccs1 test_result=99.3
molecule=CC(C)(C)c1ccc(-n2cc(-c3ccc(F)cc3F)nn2)cc1 test_result=85.4
molecule=CCOC(=O)c1cc2cc(NC(=O)N(CCO)C3CC3)ccc2s1 test_result=87.6
molecule="O=C(Nc1ccc2c(c1)C1C=CCC1C(C(=O)O)N2)c1ccc(Cl)cc1Cl (stereo not drawn)" test_result=105
molecule=O=C(O)CCC(=O)Nc1ccccc1C(=O)N1CCCCC1 test_result=99.5
molecule=CCNC(=O)Nc1cc2cccnc2nc1-c1cccc(C(F)(F)F)c1 test_result=94.1
molecule=CCOC(=O)c1c(-c2ccc(OC)cc2)noc1C(=O)c1ccccc1 test_result=89.7
molecule="Cc1cnn(CC2CCCN2C(=O)CC2OCCc3ccsc32)c1 (stereo not drawn)" test_result=86.5
molecule=O=C(Nc1ccc(F)cc1Cl)c1cnc2n(c1=O)CCS2 test_result=104
molecule=O=C1CCCN1c1ccc(CN2CCN(C3CCCC3)C(=O)C2)cc1 test_result=96.2
molecule=O=C1CCC(=O)N1CCOc1nccnc1N1CCN(Cc2ccccc2)CC1 test_result=87.9
molecule=CCCC(=O)Nc1ccccc1NC(=O)c1ccc2c(c1)OCO2 test_result=103
molecule=O=C(O)c1cccc(NC(=O)c2cc(-n3cnnc3)ccc2Cl)c1 test_result=83
